system: T1, α5β1 integrin isolated from human placental extract (human, UniProt P08648 42-1049; P05556 21-798)
T1 construct: coated on plastic wells or captured by anti-α5 antibody; also called fibronectin receptor
T1 sequence (P08648 42-1049, chain 1 of 2): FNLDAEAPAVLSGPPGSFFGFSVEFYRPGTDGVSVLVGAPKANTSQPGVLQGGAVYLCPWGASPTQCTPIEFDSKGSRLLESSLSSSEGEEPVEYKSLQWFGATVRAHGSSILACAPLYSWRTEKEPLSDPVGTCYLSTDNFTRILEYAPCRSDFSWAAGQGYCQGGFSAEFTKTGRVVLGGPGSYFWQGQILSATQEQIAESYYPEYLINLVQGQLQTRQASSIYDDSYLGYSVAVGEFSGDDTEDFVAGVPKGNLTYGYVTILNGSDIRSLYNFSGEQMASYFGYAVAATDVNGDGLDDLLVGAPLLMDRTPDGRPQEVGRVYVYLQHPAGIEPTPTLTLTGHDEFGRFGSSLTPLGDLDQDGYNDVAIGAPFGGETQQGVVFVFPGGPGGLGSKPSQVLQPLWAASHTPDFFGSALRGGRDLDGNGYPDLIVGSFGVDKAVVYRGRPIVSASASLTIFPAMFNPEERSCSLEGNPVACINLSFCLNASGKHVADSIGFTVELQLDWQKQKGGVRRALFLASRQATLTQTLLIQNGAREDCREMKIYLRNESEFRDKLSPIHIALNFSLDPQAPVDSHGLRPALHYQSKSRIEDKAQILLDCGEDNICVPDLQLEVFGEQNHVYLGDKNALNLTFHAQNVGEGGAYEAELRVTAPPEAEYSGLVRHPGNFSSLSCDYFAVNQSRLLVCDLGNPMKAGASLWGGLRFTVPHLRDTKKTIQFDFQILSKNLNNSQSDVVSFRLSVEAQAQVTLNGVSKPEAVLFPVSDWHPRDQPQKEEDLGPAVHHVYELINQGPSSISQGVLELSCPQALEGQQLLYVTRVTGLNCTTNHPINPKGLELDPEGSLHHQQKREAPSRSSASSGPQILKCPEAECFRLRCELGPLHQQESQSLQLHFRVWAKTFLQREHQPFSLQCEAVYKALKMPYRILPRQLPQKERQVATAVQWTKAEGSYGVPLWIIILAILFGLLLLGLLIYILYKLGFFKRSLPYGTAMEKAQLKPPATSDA
T1 sequence (P05556 21-798, chain 2 of 2): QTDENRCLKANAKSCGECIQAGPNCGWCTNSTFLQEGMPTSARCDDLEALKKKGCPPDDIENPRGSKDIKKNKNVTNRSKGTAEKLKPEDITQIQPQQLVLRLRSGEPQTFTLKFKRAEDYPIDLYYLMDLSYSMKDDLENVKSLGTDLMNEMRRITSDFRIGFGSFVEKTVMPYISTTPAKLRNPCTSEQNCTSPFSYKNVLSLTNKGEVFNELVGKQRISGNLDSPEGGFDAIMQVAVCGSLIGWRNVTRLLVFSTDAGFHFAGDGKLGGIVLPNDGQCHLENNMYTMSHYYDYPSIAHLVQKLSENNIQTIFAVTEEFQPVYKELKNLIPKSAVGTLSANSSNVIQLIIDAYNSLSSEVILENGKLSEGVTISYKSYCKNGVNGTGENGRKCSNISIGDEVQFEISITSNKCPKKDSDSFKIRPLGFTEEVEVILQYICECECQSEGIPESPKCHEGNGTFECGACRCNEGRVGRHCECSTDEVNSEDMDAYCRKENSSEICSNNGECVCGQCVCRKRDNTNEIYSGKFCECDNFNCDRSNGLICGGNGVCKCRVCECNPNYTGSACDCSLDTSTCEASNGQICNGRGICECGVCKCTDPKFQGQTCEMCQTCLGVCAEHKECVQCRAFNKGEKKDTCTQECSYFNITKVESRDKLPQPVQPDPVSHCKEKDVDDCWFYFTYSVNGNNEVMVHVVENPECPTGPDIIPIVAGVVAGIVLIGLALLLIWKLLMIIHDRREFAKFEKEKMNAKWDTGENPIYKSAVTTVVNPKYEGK
method-description: phage panning on coated integrin
Bridge positions count the residues as written; N and C are the ends. Ends that are not written are not given here.
experimental-readout: binding result

CRGDNAWC (on fuse 5 phage, fused to pIII) [CRGDNAWC phage] ... binds
CGQRGDGFCL (on fuse 5 phage, fused to pIII) [CGQRGDGFCL phage] ... binds
CYVNGRAWAC (on fuse 5 phage, fused to pIII) [CYVNGRAWAC phage] ... binds
CTNVNGRSAC (on fuse 5 phage, fused to pIII) [CTNVNGRSAC phage] ... binds
CRGDGWC (disulfide 1-7 (inferred), on fuse 5 phage, fused to pIII; also called phage expressing the peptide A*CRGDGWC*G; not shown: The pIII coat protein of the fuse 5 phage vector and its junction residues) [CRGDGWC phage] ... binds
CQGMHGTPAC (on fuse 5 phage, fused to pIII) [CQGMHGTPAC phage] ... binds
CRGDGWMC (on fuse 5 phage, fused to pIII) [CRGDGWMC phage] ... binds
CMWLSVNYSC (on fuse 5 phage, fused to pIII) [CMWLSVNYSC phage] ... binds
CRGDNVWC (on fuse 5 phage, fused to pIII) [CRGDNVWC phage] ... binds
CKWRSARDLC (on fuse 5 phage, fused to pIII) [CKWRSARDLC phage] ... binds

**Q:** Item CRGDAAHC (on fuse 5 phage, fused to pIII) [CRGDAAHC phage] has what recorded binding result?
**A:** binds

**Q:** Same question for CVDCILRYLC (on fuse 5 phage, fused to pIII) [CVDCILRYLC phage] please.
**A:** binds

**Q:** Same question for CRGDGLLC (on fuse 5 phage, fused to pIII) [CRGDGLLC phage] please.
**A:** binds

**Q:** Same question for CQGIDGTPAC (on fuse 5 phage, fused to pIII) [CQGIDGTPAC phage] please.
**A:** binds

**Q:** Same question for CREQPASRSC (on fuse 5 phage, fused to pIII) [CREQPASRSC phage] please.
**A:** binds

**Q:** Same question for CRGDGWWC (on fuse 5 phage, fused to pIII) [CRGDGWWC phage] please.
**A:** binds

**Q:** Same question for CRGDGLIC (on fuse 5 phage, fused to pIII) [CRGDGLIC phage] please.
**A:** binds

**Q:** Same question for CRGDGAWC (on fuse 5 phage, fused to pIII) [CRGDGAWC phage] please.
**A:** binds

**Q:** Same question for CRGDGLMC (on fuse 5 phage, fused to pIII) [CRGDGLMC phage] please.
**A:** binds

**Q:** Same question for CDWRGDNQFC (on fuse 5 phage, fused to pIII) [CDWRGDNQFC phage] please.
**A:** binds

**Q:** Same question for CRGDGAFC (on fuse 5 phage, fused to pIII) [CRGDGAFC phage] please.
**A:** binds

**Q:** Same question for CRGDGFC (disulfide 1-7 (inferred), on fuse 5 phage, fused to pIII; not shown: The pIII coat protein of the fuse 5 phage vector and its junction residues) [CRGDGFC phage] please.
**A:** binds

**Q:** Same question for CRGDGQHC (on fuse 5 phage, fused to pIII) [CRGDGQHC phage] please.
**A:** binds

**Q:** Same question for CRGDGMWC (on fuse 5 phage, fused to pIII) [CRGDGMWC phage] please.
**A:** binds
